# System: OVCAR-5 ovarian
# testSummary: NCI tumour cell line growth inhibition, 48 h
Where a SMILES comes first, the peptide text is derived from it. The star is where a group is joined. Cbz = O=C(OCc1ccccc1)*
Give measured TGI for each item. Keep answers brief.

The cases that follow already have their TGI on record.
molecule	TGI
Cc1ccc(CSC(N)=Nc2ccccc2)cc1C	56.4 µM
COc1cc2c(cc1OC)C1Cc3cc(OC)c(OC)cc3N1CC2 (stereo not given)	> 100 µM
C=C1C(=O)OC2C1CC(OC(C)=O)/C(C)=C/CCC1(C)OC21 (stereo not given)	> 100 µM
S=C1NCCN1C(=S)Nc1ccccc1	> 100 µM
COc1ccc(CNc2nc(NC3CCCCC3)nc(NC3CCCCC3)n2)cc1	> 100 µM
O=C(Nc1ccc(Cl)cc1)Nc1nccs1	> 100 µM
O=C(NC1CCCCC1)c1ccc(Nc2ncnc3c2cnn3-c2ccccc2)cc1	95.2 µM
NCCCn1c2c(c3ccccc3c1=O)C(=O)c1ccccc1-2	2.94 µM
O=C1/C(=C\c2cccc(Oc3ccccc3)c2)S(=O)(=O)C(c2ccccc2)N1c1cccc(Cl)c1 (stereo not given)	> 100 µM

With those in mind, consider the next molecule.
### Prompt # TGI lookup, item CCOC(=O)CCC(NC(=O)OCc1ccccc1)C(=O)NC(CCC(=O)OCC)C(=O)OCC (stereo not given) (Cbz-Glu(OEt)-Glu(OEt)-OEt; configuration not given here)
### Response > 100 µM

src = PubChem BioAssay (NCI)
